B1: OR4K15 (parent)
chain: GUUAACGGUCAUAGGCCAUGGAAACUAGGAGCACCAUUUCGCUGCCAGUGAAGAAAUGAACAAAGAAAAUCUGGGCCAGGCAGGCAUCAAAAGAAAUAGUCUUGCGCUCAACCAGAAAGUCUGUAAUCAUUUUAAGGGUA

- Variants of: B1
- test-details: self-cleavage, relative activity (ratio to wild type); higher = more cleavage; in vitro, sequencing; the parent is a self-cleaving ribozyme
Use 0.9 as the dividing line for self-cleavage, with the line itself on the MET side and lower values as NOT MET.

Field: example entries. Status: answers known.
GUUAACGGUCAUAGGCCAUGGAAACUAGGAGCACCAUUUCGCUGCCAGUGCAGAAAUGAACAAAGAAAAUCUGGGCCGGGCAGGCAUCAAAAGAAAUAGUCUUGCGCUCAACCAGAAAGUCUGUAAUCAUUUUAAGGGUA [A51C A78G] :: NOT MET
GUUAACGGUCAUAGGCCAUGGAAACUAGGAGCACCAUUUCGCUGCCAGUGAAGAAAUGAACAAAGAAAAUCCGGGCCAGGCAGGCAUCAAAAGAAAUAGUCUUGCGCUCAACCAGAAAGUCUGUAAUCAUUUUAAGGGUA [U72C] :: NOT MET
GUUAACGGUCAUAGGCCAUGGAAACUAGGAGCACCAUUCCGCUGCCAGUGAAGAAAUGAACAAAGAAAAUCUGGGCCAGGCAGGCAUCAAAAGAAAUAGUCUUGCGCUCAACCAGAAAGUCUGUAACCAUUUUAAGGGUA [U39C U127C] :: MET
GAUAACGGUCAUAGGCCAUGGAAACUAGGAGCACCAUUUCGCUGCCAGUGAAGAAAUGAACAAAGAAAAUCUGGGCCAGGCAGGCAUCAAAAGAAAUAGUCUUGCGCUCAACCAGAAAGUCUGUAAUCACUUUAAGGGUA [U2A U130C] :: NOT MET
GUUAACGGUCAUAGGCCAUGGAAACUAGGAGCACCAUUUAGCUGCCAGUGAAGAAAUGAACAAAGAAAGUCUGGGCCAGGCAGGCAUCAAAAGAAAUAGUCUUGCGCUCAACCAGAAAGUCUGUAAUCAUUUUAAGGGUA [C40A A69G] :: MET

Input line: Is it the case that GUUAACGGUCAUAGGCCAUGGAAACUAGGAGCACCAUUUCGCUGCCAGCGAAGAAAUGAACAAAGAAAAUCUGGGCCAGGCAGGCAUCAAAAGAAAUAGUCUAGCGCUCAACCAGAAAGUCUGUAAUCAUUUUAAGGGUA [U49C U103A] has self-cleavage reaching or exceeding 0.9?
Output line: NOT MET
